Please go through the items and note down their pIC50.
molecular target: human CSNK1D (Homo sapiens (Human), UniProt P48730)
Sequence (P48730 whole entry): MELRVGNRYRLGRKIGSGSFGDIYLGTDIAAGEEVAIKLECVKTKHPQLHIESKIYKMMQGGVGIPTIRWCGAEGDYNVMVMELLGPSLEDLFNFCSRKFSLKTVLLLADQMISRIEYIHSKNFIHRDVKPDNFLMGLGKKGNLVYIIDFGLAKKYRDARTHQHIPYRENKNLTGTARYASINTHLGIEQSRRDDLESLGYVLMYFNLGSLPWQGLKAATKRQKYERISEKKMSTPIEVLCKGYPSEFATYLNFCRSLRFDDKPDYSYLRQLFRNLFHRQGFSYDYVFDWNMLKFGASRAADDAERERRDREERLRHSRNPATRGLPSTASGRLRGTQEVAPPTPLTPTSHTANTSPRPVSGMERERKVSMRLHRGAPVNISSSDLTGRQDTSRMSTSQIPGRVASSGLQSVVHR
Formally, pIC50 is defined as -log10 of the concentration c, with c in mol/L.

Input line: Hello, I am looking for reported pIC50 with human CSNK1D (Homo sapiens (Human), UniProt P48730) for CN1CC(CC(F)(F)F)c2[nH]c(-c3ccnc(NC(=O)C(CC(F)F)c4ccc(F)cc4)c3)c(Nc3ccccc3)c2C1=O (stereo not drawn) [Example 17] . Could you help?
Output line: 7.77

Input line: Try CN1CC(CC(F)(F)F)c2[nH]c(-c3ccnc(NC(=O)C(CC(F)F)c4ccc(F)cc4)c3)c(Nc3cscn3)c2C1=O (single isomer, unassigned) [Example 55] next.
Output line: 6.96

Input line: Try Cc1cn(C)c(=O)c2c(Nc3ccccc3)c(-c3ccnc(NC(=O)C(C)c4ccc(F)cc4)c3)[nH]c12 (racemic) [Example 39] next.
Output line: 7.25

Input line: Try CN1CC(CC2CC2)c2[nH]c(-c3ccnc(NC(=O)Cc4ccc(F)cc4)c3)c(Nc3ccccc3)c2C1=O (single isomer, unassigned) [Example 20] next.
Output line: 7.54

Input line: Try CN1CC(CC(F)(F)F)c2[nH]c(-c3ccnc(NC(=O)Cc4ccc(F)cc4)c3)c(Nc3cscn3)c2C1=O (single isomer, unassigned) [Example 48] next.
Output line: 7.49

Input line: Try CC1CN(C)C(=O)c2c1[nH]c(-c1ccnc(NC(=O)Cc3ccc(F)cc3)c1)c2Nc1ccccc1 (single isomer, unassigned; (-)) [Example 7] next.
Output line: 7.96
